Assignment: determine reported GI50 for the given compounds.
System: RXF 393
Assay: NCI tumour cell line growth inhibition, 48 h
Calls of active or inactive are those of the source. Rule as the data show it: active = GI50 up to about 1.1 µM and inactive = higher.

input: // output GI50; input Cc1c2ncccc2c(C)c2c1[nH]c1ccc(O)cc12 ; system RXF 393
output: 2.9 µM (inactive)

input: // output GI50; input CN(C(=O)c1ccco1)C(=S)N1CCN(c2ccccc2)CC1 ; system RXF 393
output: > 100 µM (inactive)

input: // output GI50; input OC(CC(O)(C(F)(F)F)C(F)(F)F)C(O)c1ccco1 (stereo not given) ; system RXF 393
output: > 10 µM (inactive)

input: // output GI50; input Cc1cc(O)c(C(c2ccncc2)c2c(O)cc(C)[nH]c2=O)c(=O)[nH]1 ; system RXF 393
output: > 100 µM (inactive)

input: // output GI50; input Cc1nc2cc(F)c(F)cc2[nH]c1=O ; system RXF 393
output: > 100 µM (inactive)

input: // output GI50; input C[C@]1(O)O[C@@H]2OCC[C@@H]2C2=C1C(=O)c1ccccc1C2=O ; system RXF 393
output: 12.7 µM (inactive)

input: // output GI50; input Cc1ccc(C(=O)OC[C@H]2CC[C@@H](n3cc(N(C)C4CCCCC4)c(=O)[nH]c3=O)O2)cc1 ; system RXF 393
output: 16.7 µM (inactive)

input: // output GI50; input COc1cc(/C=C2\C(=O)N(c3ccc(NC(C)=O)cc3)C(c3ccccc3)S2(=O)=O)cc(OC)c1OC (stereo not given) ; system RXF 393
output: > 100 µM (inactive)

input: // output GI50; input C=CCc1cccc2cc(C(=O)Nc3ccccc3)c(=N)oc12 ; system RXF 393
output: > 100 µM (inactive)

input: // output GI50; input Cn1c2ccccc2n2c3ncccc3/c(=N/CCCC(=O)O)c(C#N)c12 ; system RXF 393
output: > 100 µM (inactive)

input: // output GI50; input O=c1c2c3c(sc2nc(CN2CCNCC2)n1-c1ccccc1)CCCC3 ; system RXF 393
output: > 100 µM (inactive)

input: // output GI50; input COc1cc(NCc2ccc3n2-c2ccccc2OC3)cc(OC)c1OC ; system RXF 393
output: 24.6 µM (inactive)

input: // output GI50; input COC(=O)[C@@H]1CSC(=S)N1C(=O)C[C@H]1CC=CC[C@H]1CC(=O)Sc1ccccc1 ; system RXF 393
output: 14.2 µM (inactive)

input: // output GI50; input CC(=O)OC1C(C)OC(OC2C[C@](O)(C(C)=O)Cc3c(O)c4c(c(O)c32)C(=O)c2ccccc2C4=O)C(F)C1OC(C)=O (stereo not given in full) ; system RXF 393
output: 2.74 µM (inactive)

input: // output GI50; input CC1(C)CCC(=O)NC1CC(=O)CC1NC(=O)CCC1(C)C (stereo not given) ; system RXF 393
output: > 100 µM (inactive)

input: // output GI50; input CC(=O)OCC1OC(n2c(-c3ccc(Cl)cc3)cc(-c3ccccc3)c(C#N)c2=S)C(OC(C)=O)C(OC(C)=O)C1OC(C)=O (stereo not given) ; system RXF 393
output: 13.3 µM (inactive)

input: // output GI50; input COc1ccccc1NC(=O)C1=C(C)NC(C)=C(C(=O)Nc2ccccc2OC)C1c1ccc([N+](=O)[O-])cc1 ; system RXF 393
output: 60.4 µM (inactive)

input: // output GI50; input COc1cc(S(=O)(=O)Nc2nc(-c3ccc(N4C(=O)/C(=C\c5cccs5)N=C4c4ccccc4)cc3)cs2)ccc1Cl ; system RXF 393
output: 32.1 µM (inactive)

input: // output GI50; input CN(C)/N=N/c1cccc(C(N)=O)c1 ; system RXF 393
output: > 100 µM (inactive)

input: // output GI50; input CO[C@@]1(c2ccccc2)O[C@H]2OCCC2[C@H]1c1ccc(Cl)cc1 (stereo not given in full) ; system RXF 393
output: 17.7 µM (inactive)
